Test system: VDR homodimer (NR concentration 270 nM)
Assay: PBM binding z-score (relative to random genomic background probes); higher = stronger binding; sequences stand for … in GC…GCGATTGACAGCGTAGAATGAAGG
measured.quantity: PBM binding z-score

{"sequence.data": "TCGAGTAGGTTAGTCAGGGCATTCAGCCAACATA", "target.under.test": "VDR homodimer (NR concentration 270 nM)", "measured.quantity": "PBM binding z-score", "val": 0.685}
{"sequence.data": "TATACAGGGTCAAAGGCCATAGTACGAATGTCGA", "target.under.test": "VDR homodimer (NR concentration 270 nM)", "measured.quantity": "PBM binding z-score", "val": 3.25}
{"sequence.data": "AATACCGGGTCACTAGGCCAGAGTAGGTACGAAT", "target.under.test": "VDR homodimer (NR concentration 270 nM)", "measured.quantity": "PBM binding z-score", "val": 1.22}
{"sequence.data": "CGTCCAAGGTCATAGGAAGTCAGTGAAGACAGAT", "target.under.test": "VDR homodimer (NR concentration 270 nM)", "measured.quantity": "PBM binding z-score", "val": 2.43}
{"sequence.data": "CTCGAAAGGTCGGTTGAGGTGAGTATCCGGATAA", "target.under.test": "VDR homodimer (NR concentration 270 nM)", "measured.quantity": "PBM binding z-score", "val": 0.136}
{"sequence.data": "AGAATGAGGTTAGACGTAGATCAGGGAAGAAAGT", "target.under.test": "VDR homodimer (NR concentration 270 nM)", "measured.quantity": "PBM binding z-score", "val": 0.591}
{"sequence.data": "CAGCCTAGGTCAGGGCTAGTATAGGAGGAACGTT", "target.under.test": "VDR homodimer (NR concentration 270 nM)", "measured.quantity": "PBM binding z-score", "val": -0.179}
{"sequence.data": "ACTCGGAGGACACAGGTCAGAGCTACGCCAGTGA", "target.under.test": "VDR homodimer (NR concentration 270 nM)", "measured.quantity": "PBM binding z-score", "val": 0.0264}
{"sequence.data": "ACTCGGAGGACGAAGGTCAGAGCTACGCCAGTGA", "target.under.test": "VDR homodimer (NR concentration 270 nM)", "measured.quantity": "PBM binding z-score", "val": 0.109}
{"sequence.data": "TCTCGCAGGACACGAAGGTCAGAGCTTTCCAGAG", "target.under.test": "VDR homodimer (NR concentration 270 nM)", "measured.quantity": "PBM binding z-score", "val": 0.357}
{"sequence.data": "TTACCAAGGTGTGCTGAGGTCGTTGATCCAACTC", "target.under.test": "VDR homodimer (NR concentration 270 nM)", "measured.quantity": "PBM binding z-score", "val": 2.39}
{"sequence.data": "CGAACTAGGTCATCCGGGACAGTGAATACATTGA", "target.under.test": "VDR homodimer (NR concentration 270 nM)", "measured.quantity": "PBM binding z-score", "val": 1.96}

---

Tested on: LXRb homodimer (NR concentration 270 nM)
Assay: PBM binding z-score (relative to random genomic background probes); higher = stronger binding; sequences stand for … in GC…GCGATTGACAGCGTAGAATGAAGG

{"sequence.data": "ACGGACAGGTGATGAAGGTAACTCAGGCTATCAT", "PBM binding z-score": -0.152}
{"sequence.data": "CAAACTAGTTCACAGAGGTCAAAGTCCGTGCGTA", "PBM binding z-score": 2.36}
{"sequence.data": "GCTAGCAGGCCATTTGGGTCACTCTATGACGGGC", "PBM binding z-score": -0.817}
{"sequence.data": "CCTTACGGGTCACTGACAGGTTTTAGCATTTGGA", "PBM binding z-score": 0.045}
{"sequence.data": "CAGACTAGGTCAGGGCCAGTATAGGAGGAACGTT", "PBM binding z-score": -0.575}
{"sequence.data": "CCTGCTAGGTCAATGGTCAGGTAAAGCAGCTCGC", "PBM binding z-score": -0.313}
{"sequence.data": "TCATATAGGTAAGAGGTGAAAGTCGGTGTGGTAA", "PBM binding z-score": -0.0245}
{"sequence.data": "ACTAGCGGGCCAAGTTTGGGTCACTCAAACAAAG", "PBM binding z-score": -0.855}
{"sequence.data": "GCGACGGGGGCATCAGCAGGTTACCATAACTTAA", "PBM binding z-score": 8.02}
{"sequence.data": "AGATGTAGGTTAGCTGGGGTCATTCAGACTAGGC", "PBM binding z-score": 1.17}
{"sequence.data": "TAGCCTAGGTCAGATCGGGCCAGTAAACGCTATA", "PBM binding z-score": -0.2}
{"sequence.data": "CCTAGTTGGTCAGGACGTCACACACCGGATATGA", "PBM binding z-score": 0.306}
